- assayedSystem: NF-κB p65 subunit (Homo sapiens)
- Sequence (Q04206 whole entry): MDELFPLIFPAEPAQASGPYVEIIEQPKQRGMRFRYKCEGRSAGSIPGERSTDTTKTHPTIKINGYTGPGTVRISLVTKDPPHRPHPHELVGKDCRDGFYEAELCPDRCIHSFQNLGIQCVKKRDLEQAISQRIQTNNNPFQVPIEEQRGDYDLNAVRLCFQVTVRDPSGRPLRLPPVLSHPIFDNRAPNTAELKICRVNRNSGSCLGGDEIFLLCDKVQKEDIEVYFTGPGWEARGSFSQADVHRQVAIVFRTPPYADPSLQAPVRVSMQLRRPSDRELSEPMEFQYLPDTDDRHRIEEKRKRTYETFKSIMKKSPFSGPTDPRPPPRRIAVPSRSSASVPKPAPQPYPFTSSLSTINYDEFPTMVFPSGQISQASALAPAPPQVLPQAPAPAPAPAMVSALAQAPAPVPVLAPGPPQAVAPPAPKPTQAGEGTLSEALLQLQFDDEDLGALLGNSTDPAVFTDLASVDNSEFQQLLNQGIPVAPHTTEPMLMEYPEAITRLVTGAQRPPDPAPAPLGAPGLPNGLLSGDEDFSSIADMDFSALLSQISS
- assayDetails: Enzyme-based ELISA NF-κB
- Assay type: biochemical
pIC50: −log10 of the molar value.
endpointLabel: pIC50

Item: C=C(C)[C@@H]1CC[C@]2(CO)CC[C@]3(C)[C@H](CC[C@@H]4[C@@]5(C)CC[C@H](O)C(C)(C)[C@@H]5CC[C@]43C)[C@@H]12 [Compound 6, betulin] | System: NF-κB p65 subunit (Homo sapiens) | pIC50: < 4.70
